EXPERIMENTAL_SYSTEM: T1, histidine-tRNA ligase (Jo-1) (UniProt P12081 2-509)
T1 sequence (looked up): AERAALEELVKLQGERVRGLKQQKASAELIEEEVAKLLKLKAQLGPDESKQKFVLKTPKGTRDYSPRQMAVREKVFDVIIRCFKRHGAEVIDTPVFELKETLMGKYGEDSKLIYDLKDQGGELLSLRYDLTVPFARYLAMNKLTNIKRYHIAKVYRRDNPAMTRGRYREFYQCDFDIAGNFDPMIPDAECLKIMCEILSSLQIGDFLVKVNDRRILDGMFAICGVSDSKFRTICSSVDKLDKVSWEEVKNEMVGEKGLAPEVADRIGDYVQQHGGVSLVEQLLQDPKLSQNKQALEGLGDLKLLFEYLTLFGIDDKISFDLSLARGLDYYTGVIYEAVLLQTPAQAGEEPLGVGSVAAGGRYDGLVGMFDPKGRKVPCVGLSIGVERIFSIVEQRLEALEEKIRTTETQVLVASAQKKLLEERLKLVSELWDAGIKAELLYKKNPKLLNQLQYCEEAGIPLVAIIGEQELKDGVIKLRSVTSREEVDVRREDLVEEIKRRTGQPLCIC
ASSAY_OVERVIEW: AtheNA Multi-Lyte ANA, Ab at 12.5 ug/ml;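 further: monoclonal antibodies screened for binding to a panel of nuclear autoantigens (SSA, SSB, Sm, RNP, Scl-70, Jo-1, dsDNA, CentB, histones), with anti-HIV and anti-RSV antibodies as controls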
A collection of binders and their measured AtheNA signal
// print number alone

- BINDER: "Ab7962/293i (antibody, V domains shown, Recombinant human antibody with IgG1 heavy chain backbone and kappa light chain constant (IgM in the donor B cell); they begin at LVESGGG and MTQSL; also called clone 27; pH007962/pK005996) VH: LVESGGGLVQPGGSLRLSCAASGFTFSSYEMNWVRQAPGKGLEWVSYISSSGSTIYYADSVKGRFTISRDNAKNSLYLQMNSLRAEDTAVYYCARVEQLAPSPYMDVWGKGTTVTVSS VL: MTQSLDSLTVSLGERATINCKSSQSLLYTSNNKNYLAWYQQKSGQPPKLLIYWASIRDSGVPDRFSGSGSATDFTLTINNLQAEDVAVYFCQQYYKTPLTFGGGTKVEVR"
  REPORTED_VALUE: 5
- BINDER: "Ab7968 (antibody, IgG1, V domains shown, Recombinant human antibody with IgG1 heavy chain backbone and kappa light chain constant; they begin at LVESGGG and MTQSP; also called mAb 7968; mAb7968) VH: LVESGGGVVQPGRSLRLSCAASGFTFSRYGMHWVRQAPGKGLEWVAVMSYDGSTKYYADSVKGRFAISRDNPKNTLFLQMNSLRPDDTAVYYCAKGGAAAAVMDVWGKGTTVTVSS VL: MTQSPDSLTVSLGERATISCKSSQRLLYSSNNKNYLAWYQQKPGQPPKLLMYWASTRESGVPDRFSGSGSGTDFSLTISSLQAEDVAVYYCQQYYNPPWTFGQGTKVEVK"
  REPORTED_VALUE: 2
- BINDER: "Ab7960/293i (antibody, IgG1, V domains shown, Recombinant human antibody with IgG1 heavy chain backbone and kappa light chain constant; they begin at LVESGGG and MTQSP; also called mAb 7960; mAb7960) VH: LVESGGGVVQPGKSLRLSCVASGFSFSTYGMHWVRQAPGKGLEWVAVMSFDGKTKYYADSVKGRFTISRDNPKNTLYLQMNSLRSEDTAVYYCAKGGAAAAVFDSWGPGILLTVSS VL: MTQSPNSLAVSLGGRATINCKASQSILYRSNNKNYLAWYQHKAGQPPKLLIYWASTRESGVPERFSGSGSRTDFTLTINGLQAEDVAVYYCQQYYNPPWTFGQGTKVEIK"
  REPORTED_VALUE: 4

We next turn to a different binder, shown below.
The value of AtheNA signal measured for the binder Ab7957/293i (antibody, IgG1, V domains shown, Recombinant human antibody with IgG1 heavy chain backbone and kappa light chain constant; they begin at LVESGGG and MTQSP; also called Ab7957i; mAb 7957) VH: LVESGGGVVPPGKSLRLSCAASGFTFSLYGIHWVRQAPGKGLEWVAVISYDGNTKYYTDSVKGRFTISRDNAKNTIYLQMNSLRLDDTAVYYCAKGAANSATFDFWGRGTMVTVSS VL: MTQSPDSLTLSLGERATINCRSSRTVLYRSNNKNYLAWYQHKPGQPPKLLMSWASTRETGVPDRFSGSGSGTHFTLTITSLQPEDVAVYYCQQYYSPPWTFGQGTKVEIR turned out to be 3
